Kindly state IC50 for each of the entries shown.
target: human CTPS1 (Homo sapiens, UniProt P17812); construct: purchased Proteros biostructures GmbH; test: Human CTPS1 enzyme inhibition (ADP-Glo Max assay); assay type: biochemical; conditions: Table 18, additional potency data, 25° C., read-out: CTPS1 (Human CTPS1 Enzyme Inhibition data grouped by potency range)
Sequence (P17812 whole entry): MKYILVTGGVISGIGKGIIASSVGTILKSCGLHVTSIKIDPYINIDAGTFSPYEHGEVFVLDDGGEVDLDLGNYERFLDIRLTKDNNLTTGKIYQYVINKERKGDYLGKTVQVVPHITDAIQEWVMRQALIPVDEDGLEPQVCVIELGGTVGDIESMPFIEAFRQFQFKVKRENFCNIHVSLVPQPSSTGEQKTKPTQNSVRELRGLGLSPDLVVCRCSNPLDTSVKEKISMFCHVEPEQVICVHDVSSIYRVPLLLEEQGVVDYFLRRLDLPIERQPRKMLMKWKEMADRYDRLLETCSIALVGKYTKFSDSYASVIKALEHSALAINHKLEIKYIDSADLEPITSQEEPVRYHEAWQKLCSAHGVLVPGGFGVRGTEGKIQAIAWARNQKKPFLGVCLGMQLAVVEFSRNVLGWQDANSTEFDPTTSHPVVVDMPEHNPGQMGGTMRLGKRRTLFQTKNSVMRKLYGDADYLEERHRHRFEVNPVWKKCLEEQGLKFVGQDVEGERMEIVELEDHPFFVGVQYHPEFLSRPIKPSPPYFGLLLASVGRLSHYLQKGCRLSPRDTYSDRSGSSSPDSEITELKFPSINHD

{"compound": "CC(C)Oc1cncc(-c2ccc(NC(=O)C(C)(C)c3csc(NS(=O)(=O)C4CC4)n3)c(F)c2)n1", "targetSystem": "human CTPS1 (Homo sapiens, UniProt P17812)", "IC50": "< 0.1 µM"}

Batch lookup, IC50 per entry.
1. CC(C)c1cncc(-c2ccc(NC(=O)C(C)(C)c3csc(NS(=O)(=O)C4CC4)n3)nc2)n1
2. CCC(C(=O)Nc1ccc(-c2cncc(C(F)(F)F)c2)cc1F)c1csc(NS(=O)(=O)C2CC2)n1 (single isomer, unassigned) [T416]
3. CCS(=O)(=O)Nc1nc(C(C)(C)C(=O)Nc2ccc(-c3cncc(C(F)(F)F)n3)cn2)cs1
4. CCOc1cncc(-c2ccc(NC(=O)C(OC)c3csc(NS(=O)(=O)C4CC4)n3)cc2)n1 (single isomer, unassigned) [T330]
5. CC(C)(C(=O)Nc1ccc(-c2cncc(C#N)n2)cc1F)c1csc(NS(=O)(=O)C2CC2)n1
6. CCC(C(=O)Nc1ccc(-c2cncc(C(F)(F)F)n2)cn1)c1csc(NS(=O)(=O)C2CC2)n1 (single isomer, unassigned)

Reply text:
["0.1 to 1 µM", "< 0.1 µM", "< 0.1 µM", "< 0.1 µM", "1 to 10 µM", "< 0.1 µM"]

Batch lookup, IC50 per entry.
1. CCOc1cncc(-c2ccc(NC(=O)C3(c4csc(NS(=O)(=O)C5CC5)n4)CC3)cc2)n1
2. CCOc1cncc(-c2ccc(NC(=O)C(OC)c3csc(NS(=O)(=O)C4CC4)n3)c(OC(F)(F)F)c2)n1 (stereo not drawn)
3. CCOc1cncc(-c2ccc(NC(=O)C(NC(=O)OC(C)(C)C)c3csc(NS(=O)(=O)C4CC4)n3)cc2)n1 (stereo not drawn)
4. CCOc1cncc(-c2cc(F)c(NC(=O)C(OC)c3csc(NS(=O)(=O)C4CC4)n3)c(F)c2)n1 (stereo not drawn)
5. COc1cc(-c2cncc(Cl)c2)c(F)cc1NC(=O)C(C)(C)c1csc(NS(=O)(=O)C2CC2)n1
6. COCCC(C(=O)Nc1ccc(-c2cncc(C(F)(F)F)n2)cc1)c1csc(NS(=O)(=O)C2CC2)n1 (stereo not drawn)

Reply text:
["< 0.1 µM", "< 0.1 µM", "< 0.1 µM", "< 0.1 µM", "0.1 to 1 µM", "< 0.1 µM"]

Batch lookup, IC50 per entry.
1. Cc1cc(-c2cncc(C(F)(F)F)n2)ccc1NC(=O)C(C)(C)c1csc(NS(=O)(=O)C2CC2)n1
2. COCCS(=O)(=O)Nc1nc(C(C)(C)C(=O)Nc2ccc(-c3cncc(C(F)(F)F)n3)cn2)cs1

Reply text:
1. < 0.1 µM
2. 0.1 to 1 µM

Batch lookup, IC50 per entry.
1. CC(C)(C(=O)Nc1ccc(-c2cccnc2)cc1)c1csc(NS(=O)(=O)C2CCCC2)n1
2. CC(C)(C(=O)Nc1ccc(-c2cncc(C#N)c2)cc1C(F)(F)F)c1csc(NS(=O)(=O)C2CC2)n1
3. Cc1sc(NS(=O)(=O)C2CC2)nc1C(C)(C)C(=O)Nc1ccc(-c2cncc(C(F)(F)F)n2)cc1F
4. CCOc1cncc(-c2ccc(NC(=O)C(C)(C)c3csc(NS(=O)(=O)C4CC4)n3)cc2C)n1
5. CCOc1cncc(-c2ccc(NC(=O)C(CCO)c3csc(NS(=O)(=O)C4CC4)n3)cc2)n1 (stereo not drawn)
6. Cc1c(NC(=O)C(C)(C)c2csc(NS(=O)(=O)C3CC3)n2)ccc(-c2cncc(Cl)c2)c1C
7. CCOc1cncc(-c2ccc(NC(=O)C(OC)c3csc(NS(=O)(=O)C4CC4)n3)cc2)n1 (racemic) [T410]
8. CCc1cncc(-c2ccc(NC(=O)C(C)(C)c3csc(NS(=O)(=O)C4CC4)n3)c(F)c2)n1

Reply text:
1 to 10 µM
< 0.1 µM
0.1 to 1 µM
< 0.1 µM
< 0.1 µM
< 0.1 µM
< 0.1 µM
< 0.1 µM

Batch lookup, IC50 per entry.
1. CC(C)(C(=O)Nc1ccc(-c2cncc(OCC3CCCC3)n2)cc1)c1csc(NS(=O)(=O)C2CC2)n1
2. CCOc1cncc(-c2ccc(NC(=O)C(OC)c3csc(NS(=O)(=O)C4CC4)n3)c(F)c2)n1 (stereo not drawn)
3. CCOc1cncc(-c2ccc(NC(=O)C(C)(C)c3nc(NS(=O)(=O)C4CC4)sc3Cl)cc2)n1

Reply text:
["1 to 10 µM", "< 0.1 µM", "0.1 to 1 µM"]

Batch lookup, IC50 per entry.
1. CCC(C(=O)Nc1ccc(-c2cncc(C(F)(F)F)n2)cc1F)c1csc(NS(=O)(=O)C2CC2)n1 (single isomer, unassigned)
2. CC(C)(C(=O)Nc1ccc(-c2cncc(C(F)(F)F)n2)cc1C(F)(F)F)c1csc(NS(=O)(=O)C2CC2)n1
3. CC(C)(C(=O)Nc1ccc(-c2cncc(C(F)(F)F)n2)cc1)c1csc(NS(=O)(=O)C2CCCC2)n1
4. CCOc1cncc(-c2ccc(NC(=O)C(CC)c3csc(NS(=O)(=O)C4CC4)n3)c(Cl)c2)n1 (stereo not drawn)

Reply text:
["< 0.1 µM", "0.1 to 1 µM", "0.1 to 1 µM", "< 0.1 µM"]

Reference for the values: patent US11655246B2
